# experimental_protocol: gradient 5% acetonitrile 3 min, to 50% in 2 min, to 85% in 15 min, held 3 min, 100 µL/min
# experimental_parameters: column: Zorbax Extend-C18 2.1 x 50 mm; eluents: water / acetonitrile, 0.1% formic acid
observation_type: RP-LC retention time (s)

1. CC(C)CC(=O)N1CCc2c([nH]c3ccccc23)C12C(=O)N(C)c1ccccc12 (stereo not drawn)
2. CCc1ccc(NC(=O)C2CCCN(c3ccc(=O)n(-c4ccc(C)c(Cl)c4)n3)C2)cc1 (stereo not drawn)
Q: Please compare: 1 and 2 . Report which one has the smaller RP-LC retention time value. Use the label to indicate which entry you chose.
A: 2

###

# experimental_protocol: gradient 5% acetonitrile 3 min, to 50% in 2 min, to 85% in 15 min, held 3 min, 100 µL/min
# experimental_parameters: column: Zorbax Extend-C18 2.1 x 50 mm; eluents: water / acetonitrile, 0.1% formic acid
observation_type: RP-LC retention time (s)

The cases that follow already have their RP-LC retention time on record.
| compound | RP-LC retention time / s |
| --- | --- |
| CN1CCC(Nc2ncc3ncnc(Nc4ccc(F)c(Cl)c4)c3n2)CC1 | 710 |
| COc1ccc(OC)c(NC(=O)CN2CCc3[nH]c4c(C)ccc(C)c4c(=O)c3C2)c1 | 693 |
| COc1ccccc1Oc1ccc(S(=O)(=O)Nc2cccc(C(C)=O)c2)cc1 | 887 |

I. CCn1ccc2sc(C)c(C(=O)NCC3CCCCC3)c2c1=O
II. COCc1noc([C@@H]2CN(Cc3cn(C)c4ccccc34)C[C@H]2CO)n1
Q: I'm curious, which of these has a smaller RP-LC retention time number: I or II ? Could you answer with the label of the item you picked?
A: II

1. Cc1cc2c(cc1S(=O)(=O)N1CCCC1C(=O)Nc1ccc(C(F)(F)F)cc1)OCC(=O)N2 (stereo not given)
2. O=C(NCCN1CCN(C(=O)CSc2nc3ccccc3s2)CC1)c1cccs1
Q: Task for the reader: decide whether 1 or 2 has the larger RP-LC retention time. Provide the label of your selected option as the answer.
A: 1

###

# experimental_protocol: gradient 5% acetonitrile 3 min, to 50% in 2 min, to 85% in 15 min, held 3 min, 100 µL/min
# experimental_parameters: column: Zorbax Extend-C18 2.1 x 50 mm; eluents: water / acetonitrile, 0.1% formic acid
observation_type: RP-LC retention time (s)

| compound | observation_type | unit_symbol | observed |
| --- | --- | --- | --- |
| Cc1[nH]c2ccc(C(=O)NC3CCCC3)cc2c1C | RP-LC retention time | s | 650 |
| Cc1cccc(N2C(=O)CN(CCCc3ccccc3)[C@H]3CS(=O)(=O)C[C@H]32)c1 | RP-LC retention time | s | 871 |
| O=C(c1ccsc1)N1CCCC(c2nncn2-c2ccccc2)C1 (stereo unspecified) | RP-LC retention time | s | 667 |
| Cn1c(=O)n(C)c2cc(N3CCOCC3)c(NC(=O)Cc3ccccc3)cc21 | RP-LC retention time | s | 752 |
| Cc1cccc(-c2noc(-c3sccc3NC(=O)c3ccc4nc[nH]c4c3)n2)c1 | RP-LC retention time | s | 957 |
| O=C(NCC(c1cccnc1)N1CCc2ccccc21)C(=O)Nc1ccccc1[N+](=O)[O-] (stereo unspecified) | RP-LC retention time | s | 702 |
| CN(CCc1noc(-c2ccc(C(=O)NCCCN3CCCC3)cc2)n1)C(=O)c1ccc(F)cc1 | RP-LC retention time | s | 623 |
| COc1ccccc1OCCNC(=O)[C@@]12CCCC[C@H]1N(C)C(=O)CC2 | RP-LC retention time | s | 663 |
| O=C(CC1CCCC1)N1CCCCC1c1nncn1Cc1ccccc1 (stereo unspecified) | RP-LC retention time | s | 890 |
| O=C(Cc1cccs1)Nc1ccc(SCc2nnc(-c3ccccc3)o2)cc1 | RP-LC retention time | s | 940 |
| O=C(CC1CCCCC1)N1CCC(F)(C(=O)N2CCCC2)CC1 | RP-LC retention time | s | 806 |
